target: T1, human ROR2 expressed on the cell surface (human, UniProt Q01974 34-943)
T1 construct: Endogenous ROR2 of human tumour cell lines; also called cell surface ROR2; ROR2 on tumour cell lines
T1 sequence (Q01974 34-943 limits assumed): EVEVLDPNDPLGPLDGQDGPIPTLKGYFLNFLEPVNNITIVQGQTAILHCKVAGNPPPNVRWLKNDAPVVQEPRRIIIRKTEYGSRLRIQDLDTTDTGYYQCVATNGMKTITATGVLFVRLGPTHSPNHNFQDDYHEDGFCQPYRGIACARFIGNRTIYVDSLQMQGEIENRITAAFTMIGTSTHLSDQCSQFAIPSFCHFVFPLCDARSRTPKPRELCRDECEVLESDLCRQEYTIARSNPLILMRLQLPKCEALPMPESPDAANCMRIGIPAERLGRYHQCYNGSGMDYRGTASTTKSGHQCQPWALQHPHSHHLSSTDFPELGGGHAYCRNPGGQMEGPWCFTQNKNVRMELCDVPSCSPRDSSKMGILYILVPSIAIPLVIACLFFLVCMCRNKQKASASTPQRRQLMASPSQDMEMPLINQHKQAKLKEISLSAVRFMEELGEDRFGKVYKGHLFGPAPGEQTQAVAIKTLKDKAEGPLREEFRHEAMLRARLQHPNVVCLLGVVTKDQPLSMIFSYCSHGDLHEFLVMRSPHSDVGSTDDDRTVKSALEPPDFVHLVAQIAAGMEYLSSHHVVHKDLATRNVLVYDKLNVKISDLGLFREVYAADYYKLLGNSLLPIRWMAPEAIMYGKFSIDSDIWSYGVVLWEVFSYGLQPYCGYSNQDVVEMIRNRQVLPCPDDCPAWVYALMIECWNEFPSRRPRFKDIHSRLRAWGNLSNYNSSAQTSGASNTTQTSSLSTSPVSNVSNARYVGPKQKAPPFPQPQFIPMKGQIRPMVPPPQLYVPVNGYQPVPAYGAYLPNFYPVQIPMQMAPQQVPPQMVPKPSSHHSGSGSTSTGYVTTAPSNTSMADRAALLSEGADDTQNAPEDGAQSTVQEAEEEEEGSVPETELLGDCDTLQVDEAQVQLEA
assay-name: flow cytometry, AU565 cells (breast CA)
Set-up: unit not given here
Collected binding intensity values appear next to each entry.
Please reply with the number alone, leaving off any unit.

These recorded examples may help you get a feel for the data.
ROR2-90 full length human IgG1 antibody (antibody, V domains shown, also called clone #90; antibody #90) VH: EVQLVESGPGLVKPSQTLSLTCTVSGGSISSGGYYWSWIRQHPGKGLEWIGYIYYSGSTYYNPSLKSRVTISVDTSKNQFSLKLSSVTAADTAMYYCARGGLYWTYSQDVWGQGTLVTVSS VL: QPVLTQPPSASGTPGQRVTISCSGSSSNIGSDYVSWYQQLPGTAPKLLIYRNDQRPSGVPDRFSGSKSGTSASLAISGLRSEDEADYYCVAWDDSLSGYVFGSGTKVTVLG	211
ROR2-241 full length human IgG1 antibody (antibody, V domains shown) VH: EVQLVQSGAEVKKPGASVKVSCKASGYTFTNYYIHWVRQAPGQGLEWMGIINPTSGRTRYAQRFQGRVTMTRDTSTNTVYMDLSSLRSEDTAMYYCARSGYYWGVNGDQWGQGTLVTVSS VL: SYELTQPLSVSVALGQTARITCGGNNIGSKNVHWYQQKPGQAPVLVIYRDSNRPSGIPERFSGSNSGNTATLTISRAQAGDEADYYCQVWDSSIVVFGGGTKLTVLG	83

Query: Item ROR2-27 full length human IgG1 antibody (antibody, V domains shown, also called clone #27; clone #027 IgG1) VH: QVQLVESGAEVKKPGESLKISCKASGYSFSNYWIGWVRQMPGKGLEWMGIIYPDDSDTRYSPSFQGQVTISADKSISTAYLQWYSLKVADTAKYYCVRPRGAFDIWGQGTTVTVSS VL: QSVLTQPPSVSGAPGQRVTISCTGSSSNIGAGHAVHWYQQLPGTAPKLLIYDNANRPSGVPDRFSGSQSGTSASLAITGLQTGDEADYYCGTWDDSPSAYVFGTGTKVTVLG has what recorded binding intensity?
Result: 8

Query: And for ROR2-240 full length human IgG1 antibody (antibody, V domains shown, also called clone #240 IgG1) VH: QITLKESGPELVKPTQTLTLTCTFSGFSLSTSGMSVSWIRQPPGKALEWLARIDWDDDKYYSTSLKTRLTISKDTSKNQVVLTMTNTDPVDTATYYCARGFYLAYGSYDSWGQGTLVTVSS VL: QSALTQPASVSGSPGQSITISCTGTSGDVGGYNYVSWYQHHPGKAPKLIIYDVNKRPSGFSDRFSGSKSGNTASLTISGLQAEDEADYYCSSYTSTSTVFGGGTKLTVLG ?
Result: 4
